List of pIC50 values.
Target: human TLR7 (Homo sapiens, UniProt Q9NYK1)
Sequence (Q9NYK1 27-1049): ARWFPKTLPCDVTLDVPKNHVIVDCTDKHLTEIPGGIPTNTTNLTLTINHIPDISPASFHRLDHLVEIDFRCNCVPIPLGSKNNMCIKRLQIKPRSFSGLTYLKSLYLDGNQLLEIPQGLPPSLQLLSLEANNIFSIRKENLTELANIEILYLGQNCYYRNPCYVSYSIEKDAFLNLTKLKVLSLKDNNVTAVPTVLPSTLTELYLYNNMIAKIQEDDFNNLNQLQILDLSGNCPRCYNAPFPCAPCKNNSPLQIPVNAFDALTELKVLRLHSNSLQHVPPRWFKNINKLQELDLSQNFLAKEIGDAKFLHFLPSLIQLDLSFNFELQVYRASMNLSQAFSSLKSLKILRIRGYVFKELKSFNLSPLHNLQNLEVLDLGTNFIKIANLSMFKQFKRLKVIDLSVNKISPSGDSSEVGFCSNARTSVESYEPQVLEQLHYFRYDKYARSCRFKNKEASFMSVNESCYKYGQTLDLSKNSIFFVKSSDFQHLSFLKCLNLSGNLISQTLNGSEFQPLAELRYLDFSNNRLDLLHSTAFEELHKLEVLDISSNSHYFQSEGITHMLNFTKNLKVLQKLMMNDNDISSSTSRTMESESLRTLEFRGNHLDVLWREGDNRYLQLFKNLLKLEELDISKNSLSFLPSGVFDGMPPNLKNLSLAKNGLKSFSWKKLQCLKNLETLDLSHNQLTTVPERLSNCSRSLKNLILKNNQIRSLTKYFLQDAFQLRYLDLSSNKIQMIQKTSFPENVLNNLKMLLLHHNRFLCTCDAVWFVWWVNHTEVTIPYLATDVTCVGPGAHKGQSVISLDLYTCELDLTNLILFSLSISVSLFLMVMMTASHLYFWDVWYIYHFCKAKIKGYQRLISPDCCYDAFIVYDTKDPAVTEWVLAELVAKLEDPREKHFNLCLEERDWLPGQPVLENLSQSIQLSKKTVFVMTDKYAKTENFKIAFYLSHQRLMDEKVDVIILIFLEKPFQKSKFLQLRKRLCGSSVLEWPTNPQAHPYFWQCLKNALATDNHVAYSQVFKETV
Test: TLR7 inhibition reporter assay (HEK-Blue cells, secreted embryonic alkaline phosphatase reporter)
Details: HEK-Blue cells overexpressing human TLR7, stimulated with gardiquimod 7.5 μM; read-out: TLR 7 IC50
pIC50: −log10 of the molar value.

Examples with answers:
MOLECULE: Cn1c(-c2ccc(S(C)(=O)=O)cc2)nc2cc(F)c(C3CCN(C4CC5CCC(C4)N5C4CCOCC4)CC3)cc21 (stereo not shown) [Example 237]
STUDY_SYSTEM: human TLR7 (Homo sapiens, UniProt Q9NYK1)
READOUT_KIND: pIC50
MEASUREMENT: < 4.30

MOLECULE: CC(C)N1CCC(N2CCC(c3cc4nc(-c5ccc(S(C)(=O)=O)cc5)n(C)c4cc3F)CC2)CC1
STUDY_SYSTEM: human TLR7 (Homo sapiens, UniProt Q9NYK1)
READOUT_KIND: pIC50
MEASUREMENT: 4.42

MOLECULE: CC(C)CN1CCCC(N2CCC(c3ccc4nc(-c5ccc(S(C)(=O)=O)cc5)n(C)c4c3F)CC2)CC1 (stereo not shown) [Example 310]
STUDY_SYSTEM: human TLR7 (Homo sapiens, UniProt Q9NYK1)
READOUT_KIND: pIC50
MEASUREMENT: < 4.30

Field: next molecule
query: Give the measured pIC50 for Cn1c(-c2ccc(S(C)(=O)=O)cc2)nc2c(F)c(C3CCN(C4CC5CCC(C4)N5C4CCOCC4)CC3)ccc21 (stereo not shown) [Example 197]
result: < 4.30
